biological target: T1, CTNI quality control recombinant protein (PK2-CTNI-1, 170120, produced by the applicant) (human, UniProt P19429 2-210, limits assumed); experiment: AMC sensor kinetics, antibody captured, cTnI analyte
T1 construct: also called cardiac troponin I
T1 sequence (P19429 2-210 limits assumed): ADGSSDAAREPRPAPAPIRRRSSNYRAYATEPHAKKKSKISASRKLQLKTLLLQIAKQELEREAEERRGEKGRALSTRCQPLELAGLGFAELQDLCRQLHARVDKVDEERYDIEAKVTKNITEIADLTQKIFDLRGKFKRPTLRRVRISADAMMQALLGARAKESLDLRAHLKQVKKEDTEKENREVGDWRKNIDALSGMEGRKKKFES
The entries below come with measured pKd values attached.
Please keep in mind that pKd is minus log10 of the molar concentration; only the number is needed.

These solved cases illustrate the format of a correct answer.
BINDER | RECORDED_RESULT
WT 1-14 (antibody, V domains shown, built as for Mutation 1) VH: EVQLQQSGAELVKPGASVKLSCTASGFNIKEYFMHWMKQRTEQGLDWIGRIEPEDAETKYAPEFQGKATITADTSSNTAYLQLSTLTSEDTAVYYCARYYTSYIPFVYWGQGTLVTASA VL: DVVMTQTPLSLSVSLGDQASISCRSSQSLLYSNKHTYLHWYLQKPGQSPKLLIFQISQRFSGVPDRFSGSGSGTDFTLKINRVEAEDLGVYFCSNSTHIPFTFGSGTKLEIKR | 9.13
WT 1-3 (antibody, V domains shown, built as for Mutation 1) VH: EVQLQQSGAELVKPGASVKLSCTASGFNIKEYYMHWMKQRTEQGLDWIGRIEPEDGETKYAPEFQGKATITADTSSNTAYLQLSTLTSEDTAVYYCARYYTSYLPFVYWGQGTLVTASA VL: DVVMTQTPLSLSVSLGDQASISCRSSQSLLYSNKHTYLHWYLQKPGQSPKLLIFQLSQRFSGVPDRFSGSGSGTDFTLKINRVEAEDLGVYFCSNSTHIPYTFGSGTKLEIKR | 9.26
WT 1-50 (antibody, V domains shown, Built as for Mutation 1) VH: EVQLQQSGAELVKPGASVKLSCTASGFNLKEYYMHWMKQRTEQGLDWIGRIEPEDGETRYAPEFQGKATITADTSSNTAYLQLSTLTSEDTAVYYCARYYTSYLPFVYWGQGTLVTASA VL: DVVMTQTPLSLSVSLGDQASISCRSSQSLIYSNKHTYLHWYLQKPGQSPKLLIFQLSQRFSGVPDRFSGSGSGTDFTLKINRVEAEDLGVYFCSNSTHLPYTFGSGTKLEIKR | 9.15

Now examine the next entry.
Qu. Looking for the measured pKd of WT 1-29 (antibody, V domains shown, built as for Mutation 1) VH: EVQLQQSGAELVKPGASVKLSCTASGFNLKEYYMHWMKQRTEQGLDWIGRIEPEDGETKYAPEFQGKATITADTSSNTAYLQLSTLTSEDTAVYYCARYYTSYVPFVYWGQGTLVTASA VL: DVVMTQTPLSLSVSLGDQASISCRSSQSLLYSNKHTYLHWYLQKPGQSPKLLIFQVSQRFSGVPDRFSGSGSGTDFTLKINRVEAEDLGVYFCSNSTHLPYTFGSGTKLEIKR , can you help?
Ans. 8.91

This collection of values is drawn from patent US20210340231A1.
